Experiment: galactose survival enhancers in mitochondrial complex I cybrids – cell-based, galactose medium, ATP luminescence, primary screen (AID 1645843);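 further: positive z means more ATP and so rescue of galactose-driven cybrid death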
Conditions: complex I mutant cybrid cells, 72 h, hits give high values
Label yes for high-side z-score (at or above 0.1) and no for low-side z-score (below it).

Is z-score for COc1cc(COc2cc(N)c(Cl)cc2C(=O)CCC2CCN(CCNS(C)(=O)=O)CC2)cc(OC)c1 at or above 0.1?
no

Is z-score for COc1cc2ncnc(Nc3cccc(Cl)c3)c2cc1OC at or above 0.1?
yes

Is z-score for N#C/C(=C\c1ccc(O)c(O)c1)C(=O)NCCCCc1ccccc1 at or above 0.1?
no

Is z-score for CC1(C)CCC(C)(C)c2cc(C3(c4ccc(C(=O)O)cc4)OCCO3)ccc21 at or above 0.1?
yes

Is z-score for C[C@@H]1CC2C3CCC4=CC(=O)C=CC4(C)C3(F)[C@@H](O)CC2(C)C1(O)C(=O)CO (stereo not given in full) at or above 0.1?
yes

Is z-score for COc1cc(/C=C(\C#N)C(=O)Nc2nnc(C(F)(F)F)s2)ccc1OCc1ccc(C(F)(F)F)cc1C(F)(F)F at or above 0.1?
yes

Is z-score for Cc1ccc(NC(=O)C(C)C)cc1C1CCN(Cc2ccc(Oc3ccc(F)c(F)c3)cc2)CC1 at or above 0.1?
no

Is z-score for CCCCn1c(=O)c2[nH]c(C34CC5CC(CC3C5)C4)nc2n(CCCO)c1=O at or above 0.1?
yes

Is z-score for O=C1C(=O)N(Cc2ccc(Cl)c(Cl)c2)c2ccccc21 at or above 0.1?
no

Is z-score for O=S(=O)(c1cccc2c(I)cccc12)N1CCCNCC1 at or above 0.1?
no

Is z-score for C1CCC2(CC1)CCNCC2 at or above 0.1?
yes

Is z-score for COc1cc([C@@H]2c3cc4c(cc3C(OC3OC5COC(C)OC5C(O)C3O)C3COC(=O)[C@@H]32)OCO4)cc(OC)c1O (stereo not given in full) at or above 0.1?
no

Is z-score for CC(C)N1CCN(c2ccc(C(=O)c3c(-c4ccc(O)cc4)sc4cc(O)ccc34)cc2)CC1 at or above 0.1?
no

Is z-score for Cc1nc2ccc(NC(=O)Nc3ccnc4cccnc34)cc2o1 at or above 0.1?
yes

Is z-score for CCOC(=O)C1CSC(Cc2ccc(OCc3ccc([N+](=O)[O-])cc3)cc2)N1 (stereo not given) at or above 0.1?
no

Is z-score for CCCC[P+](CCCC)(CCCC)Cc1ccc(NC(=O)[C@@H](Cc2ccc3ccccc3c2)NC(=NC2CCCCC2)NC2CCCCC2)cc1 at or above 0.1?
no

Is z-score for Cc1nn(C)c2nc(NNC(=O)Nc3cc(Cl)nc(Cl)c3)cc(C(C)C)c12 at or above 0.1?
no

Is z-score for N#Cc1ccc(NCCNCC(=O)N2CCC[C@H]2C#N)nc1 at or above 0.1?
yes

Is z-score for CCCCCCCNS(=O)(=O)c1cccc2c(Cl)cccc12 at or above 0.1?
no

Is z-score for CCOC(=O)c1c(C)[nH]c2ccc3c(c12)CN1CCc2cc(OC)ccc2C1O3 (stereo not given) at or above 0.1?
no

Is z-score for CC(=O)O[C@@H]1C[C@H]2C(C)(C)C(=O)C=C[C@]2(C)[C@H]2CC[C@@]3(C)[C@H](c4ccoc4)OC(=O)[C@H]4O[C@]43[C@@]21C at or above 0.1?
no

Is z-score for NC(=O)N/N=C/c1ccc(Oc2ccc(F)cc2)cc1 at or above 0.1?
yes

Is z-score for N#C/C(=C\c1ccc(O)c(O)c1)C(=O)OCCc1cccs1 at or above 0.1?
no

Is z-score for CC(N)=NCCCC[C@H](N)C(=O)O at or above 0.1?
yes

Is z-score for Cc1ccc(S(=O)(=O)N[C@@H](Cc2ccccc2)C(=O)CCl)cc1 at or above 0.1?
no

Is z-score for C=CC[N+]1([C@H]2C[C@H]3[C@@H]4CC[C@H]5C[C@H](O)[C@@H](N6CCOCC6)C[C@]5(C)[C@H]4CC[C@]3(C)[C@H]2OC(C)=O)CCCC1 at or above 0.1?
yes

Is z-score for c1ccc2sc(N3CCN(Cc4ccc5c(c4)OCO5)CC3)nc2c1 at or above 0.1?
no

Is z-score for CC(C)(C)c1cc(/C=C(\C#N)C(N)=S)cc(C(C)(C)C)c1O at or above 0.1?
no

Is z-score for COC(=O)[C@@H]1C2C[C@H]3c4[nH]c5ccccc5c4CCN3C[C@@H]2CC[C@@H]1O (stereo not given in full) at or above 0.1?
yes
